# target: GMPPNP-loaded H-Ras or GTP-loaded K-Ras
# method_summary: FP competition, displacement of probe R4007 from Ras
*1 amine or outer side, *2 acyl side, *3 side chain or, on linkers, in order; H or OH if unused. Bridges are numbered along the chain shown (N, C = ends). [ ]: non-standard residue; d: D form. Trp(7-aza) = N[C@@H](Cc1c[nH]c2ncccc12)C(=O)O; NMePhe(4-F) = CN[C@@H](Cc1ccc(F)cc1)C(=O)O; mXylylene = c1cc(C[*:1])cc(C[*:2])c1; Phg = N[C@H](C(=O)O)c1ccccc1; Tle = CC(C)(C)[C@H](N)C(=O)O; NMeA = CN[C@@H](C)C(=O)O; Nva = CCC[C@H](N)C(=O)O; Sar = CNCC(=O)O
// NB: equality with 0.04 µM counts as criterion not met; only IC50 strictly below is criterion met

binder	qualitative_label
Ac-[Nva]CY[Tle]KH[NMeA][Phg][Trp(7-aza)]Y[NMePhe(4-F)][Sar]CGCMSCKCVLS-NH2 (linker 2-13 via mXylylene; cysteine pairing not given here) [R4116]	criterion met

Query block: Record Ac-[Nva]CY[Tle]K[dP][NMeA][Phg][Trp(7-aza)]Y[NMePhe(4-F)][Sar]C-NH2 (linker 2-13 via mXylylene; SMILES CCC[C@H](NC(C)=O)C(=O)N[C@H]1CSCc2cccc(c2)CSC[C@@H](C(N)=O)NC(=O)CN(C)C(=O)[C@H](Cc2ccc(F)cc2)N(C)C(=O)[C@H](Cc2ccc(O)cc2)NC(=O)[C@H](Cc2c[nH]c3ncccc23)NC(=O)[C@H](c2ccccc2)NC(=O)[C@H](C)N(C)C(=O)[C@H]2CCCN2C(=O)[C@H](CCCCN)NC(=O)[C@H](C(C)(C)C)NC(=O)[C@H](Cc2ccc(O)cc2)NC1=O) [R4144] : is its IC50 strictly below 0.04 µM?
Result block: criterion not met

Query block: Try this binder next: Ac-[Nva]CY[Tle]KA[NMeA][Phg][Trp(7-aza)]Y[NMePhe(4-F)][Sar]C-NH2 (linker 2-13 via mXylylene; SMILES CCC[C@H](NC(C)=O)C(=O)N[C@H]1CSCc2cccc(c2)CSC[C@@H](C(N)=O)NC(=O)CN(C)C(=O)[C@H](Cc2ccc(F)cc2)N(C)C(=O)[C@H](Cc2ccc(O)cc2)NC(=O)[C@H](Cc2c[nH]c3ncccc23)NC(=O)[C@H](c2ccccc2)NC(=O)[C@H](C)N(C)C(=O)[C@H](C)NC(=O)[C@H](CCCCN)NC(=O)[C@H](C(C)(C)C)NC(=O)[C@H](Cc2ccc(O)cc2)NC1=O) [R4126]
Result block: criterion not met

Query block: Try this binder next: Ac-[Nva]CY[Tle]K(4‑(dimethylamino)benzoyl‑2,3,5,6‑d4)H[NMeA][Phg][Trp(7-aza)]Y[NMePhe(4-F)][Sar]C-NH2 (linker 2-13 via mXylylene) [R4150]
Result block: criterion not met

Query block: Try this binder next: Ac-[Nva]CY[Tle]KH[NMeA][Phg][Trp(7-aza)]Y[NMePhe(4-F)][NMeA]C-NH2 (linker 2-13 via mXylylene; SMILES CCC[C@H](NC(C)=O)C(=O)N[C@H]1CSCc2cccc(c2)CSC[C@@H](C(N)=O)NC(=O)[C@H](C)N(C)C(=O)[C@H](Cc2ccc(F)cc2)N(C)C(=O)[C@H](Cc2ccc(O)cc2)NC(=O)[C@H](Cc2c[nH]c3ncccc23)NC(=O)[C@H](c2ccccc2)NC(=O)[C@H](C)N(C)C(=O)[C@H](Cc2c[nH]cn2)NC(=O)[C@H](CCCCN)NC(=O)[C@H](C(C)(C)C)NC(=O)[C@H](Cc2ccc(O)cc2)NC1=O) [R4101]
Result block: criterion met

Reference for the values: patent US20190119358A1
